Test: Dose normalized AUC in po dosed rat administered as cassette dose
Assay type: ADME, organism-based
Settings: in vivo
Provide the recorded log10 of AUC/dose for the entries that follow.
A difference of one corresponds to tenfold AUC/dose; all values are log10 with AUC/dose in kg·h/L.

Reported log10 of AUC/dose for CC(C)(O)CNc1cc(Oc2ccc(NC(=O)Nc3cccc(C(F)(F)F)c3)cc2)ncn1 : what is it?
0.30

Looking for the measured log10 of AUC/dose of CNC(=O)c1cc(Oc2ccc(NC(=O)Nc3ccc(Cl)c(C(F)(F)F)c3)cc2)ccn1 , can you help?
0.76

Quick one: log10 of AUC/dose for CNc1cc(Oc2c(C)cc(NC(=O)Nc3cccc(C(F)(F)F)c3)cc2C)ncn1 ?
0.18

I would be grateful if you could share the reported log10 of AUC/dose for CCc1cc(NC(=O)Nc2cccc(C(F)(F)F)c2)cc(Cl)c1Oc1cc(NC)ncn1 .
0.08

Bench note: what log10 of AUC/dose did CCS(=O)(=O)c1ccc(S(=O)(=O)NC)cc1Nc1cc(Nc2ccc(Cl)cn2)ncn1 show?
-0.25

For CNS(=O)(=O)c1ccc(N(C)C)c(Nc2ncnc3[nH]ccc23)c1 , what is its reported log10 of AUC/dose?
-0.23

# query: log10 of AUC/dose of entry Nc1cc(Oc2ccc(NC(=O)Nc3cccc(C(F)(F)F)c3)cc2)ncn1
-0.40

Which measured log10 of AUC/dose value corresponds to CNc1cc(Oc2ccc(NC(=O)Nc3cccc(C(F)(F)F)c3)cc2)ncn1 ?
0.58

// query log10 of AUC/dose value for entry CNS(=O)(=O)c1ccc(N(C)C)c(Nc2ncnc3cc(OC)c(OC)cc23)c1
-0.74

Which measured log10 of AUC/dose value corresponds to CNc1cc(Oc2c(Cl)cc(NC(=O)Nc3cccc(C(F)(F)F)c3)cc2Cl)ncn1 ?
0.58

Which log10 of AUC/dose value belongs to O=C(Nc1ccc(Oc2cc(NCCO)ncn2)cc1)Nc1cccc(C(F)(F)F)c1 ?
-0.52

###

Biological target: Serine/threonine-protein kinase B-raf (Homo sapiens, UniProt P15056)
Sequence (P15056 whole entry): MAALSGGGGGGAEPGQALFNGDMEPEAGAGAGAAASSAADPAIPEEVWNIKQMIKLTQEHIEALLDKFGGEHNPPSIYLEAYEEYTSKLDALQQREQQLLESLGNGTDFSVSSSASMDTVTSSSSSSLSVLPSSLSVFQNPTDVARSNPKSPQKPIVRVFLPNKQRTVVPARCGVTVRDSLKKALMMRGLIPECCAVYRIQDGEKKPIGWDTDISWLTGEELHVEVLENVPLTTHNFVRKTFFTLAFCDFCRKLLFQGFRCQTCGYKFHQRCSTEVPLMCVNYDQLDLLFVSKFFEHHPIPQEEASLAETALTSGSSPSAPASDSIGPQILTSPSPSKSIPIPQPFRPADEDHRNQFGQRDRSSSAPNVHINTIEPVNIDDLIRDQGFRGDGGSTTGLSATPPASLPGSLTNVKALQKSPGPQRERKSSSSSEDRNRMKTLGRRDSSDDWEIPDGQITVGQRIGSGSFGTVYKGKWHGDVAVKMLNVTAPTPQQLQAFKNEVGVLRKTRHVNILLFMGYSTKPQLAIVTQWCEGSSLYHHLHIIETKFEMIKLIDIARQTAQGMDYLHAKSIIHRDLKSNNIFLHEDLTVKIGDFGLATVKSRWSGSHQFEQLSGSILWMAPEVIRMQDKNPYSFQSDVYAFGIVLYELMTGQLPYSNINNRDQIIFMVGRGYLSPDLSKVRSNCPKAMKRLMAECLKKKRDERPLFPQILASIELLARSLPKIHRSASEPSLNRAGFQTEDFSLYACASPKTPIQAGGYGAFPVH
IC50 vs 600 nM: less than gives Fulfilled; not less than gives Not fulfilled.

# check: IC50 < 600 nM for CCc1cccc(NC(=O)Nc2ccc(Oc3cc(NC)ncn3)cc2)c1
Not fulfilled

Quick check: IC50 of CCCNc1cc(Oc2ccc(NC(=O)Nc3cccc(C(F)(F)F)c3)cc2)ncn1 under 600 nM?
Not fulfilled

Lab note: IC50 threshold 600 nM. Does this molecule come in strictly under it? O=C(Nc1ccc(Oc2ccncc2)cc1)Nc1cccc(C(F)(F)F)c1
Not fulfilled

Input CNS(=O)(=O)c1ccc(N(C)C)c(Nc2ncnc3cc(OC)c(OC)cc23)c1 ; condition: IC50 strictly below 600 nM. Does it hold?
Not fulfilled

Quick check: does C[C@@H](O)CNc1cc(Oc2ccc(NC(=O)Nc3cccc(C(F)(F)F)c3)cc2)ncn1 have IC50 under 600 nM?
Not fulfilled

Is 600 nM strictly greater than the molecule's reported IC50? molecule: CN(C)c1cc(Oc2ccc(NC(=O)Nc3cccc(C(F)(F)F)c3)cc2)ncn1
Not fulfilled

Check if IC50 falls below 600 nM for CNc1cc(Oc2ccc(NC(=O)Nc3cccc(C(F)(F)F)c3)cc2Cl)ncn1 .
Fulfilled

# strict comparison: is reported IC50 < 600 nM? input = C[C@H](O)CNc1cc(Oc2ccc(NC(=O)Nc3cccc(C(F)(F)F)c3)cc2)ncn1
Not fulfilled

In plain terms, does CNS(=O)(=O)c1ccc(N(C)C)c(Nc2ncnc3[nH]ccc23)c1 come in under 600 nM for IC50?
Fulfilled

Does the reported IC50 of COc1cc2ncnc(Oc3ccc(NC(=O)Nc4cccc(C(F)(F)F)c4)cc3)c2cc1OC stay below 600 nM?
Fulfilled

Decide: IC50 of CNc1cc(Oc2ccc(NC(=O)Nc3cccc(C(F)(F)F)c3)c3ccccc23)ncn1 strictly below 600 nM?
Fulfilled

Is it true that IC50 reported for Cc1cc(Oc2ccc(NC(=O)Nc3cccc(C(F)(F)F)c3)cc2)c2ccccc2n1 is less than 600 nM?
Not fulfilled

Is IC50 strictly under 600 nM for the entry CNc1cc(Oc2c(C)cc(NC(=O)Nc3cccc(C(F)(F)F)c3)cc2Cl)ncn1 ?
Not fulfilled
